test.name: Cytotoxicity against human HeLa cells after 3 days by microscopic analysis
Format: cell-based
measurement.conditions: read-out: MNCC
property.name: MNTC at 72 h (µM)
One number for each entry, in µM.

Please review the entries below; each comes with its answer.
| smiles.code | unit | MNTC at 72 h |
| --- | --- | --- |
| O=C1/C(=C/C=C/c2ccc(Cl)cc2)COc2ccc(Cl)cc21 | µM | 12.5 |
| Clc1ccc(/C=C/C=C2\COc3ccc(Cl)cc3C2)cc1 | µM | 12.5 |
| C(/C=C/c1ccccc1)=C1/COc2ccccc2C1 | µM | 50 |
| O=C1/C(=C/C=C/c2ccccc2)COc2ccccc21 | µM | 12.5 |
| O=C1/C(=C/C=C/c2ccccc2)COc2ccc(Cl)cc21 | µM | 25 |
| Fc1ccc2c(c1)C/C(=C/C=C/c1ccccc1)CO2 | µM | 50 |
| O=C1/C(=C/C#Cc2ccccc2)COc2ccccc21 | µM | 25 |
| O=C1/C(=C/C=C/c2ccc(Cl)cc2)COc2ccccc21 | µM | 25 |
| Clc1ccc2c(c1)C/C(=C/C=C/c1ccccc1)CO2 | µM | 25 |
| Clc1ccc2c(c1)C=C(/C=C/Cc1ccccc1)CO2 | µM | 12.5 |

Quick batch: MNTC at 72 h for everything below.
1. O=C1/C(=C/C=C/c2ccccc2)COc2ccc(F)cc21
2. Clc1ccc(C/C=C/C2=Cc3ccccc3OC2)cc1

Result:
25
50

---

What CC50 at 72 h was measured for each of the following?
test.name: Cytotoxicity against human HeLa cells after 3 days by XTT based ELISA reader
Assay type: cell-based
measurement.conditions: read-out: TC50
One number for each entry, in µM.

| smiles.code | CC50 at 72 h (µM) |
| --- | --- |
| Clc1ccc(C/C=C/C2=Cc3cc(Cl)ccc3OC2)cc1 | 100 |
| Clc1ccc2c(c1)C=C(/C=C/Cc1ccccc1)CO2 | 25 |

Quick batch: CC50 at 72 h for everything below.
1. O=C1/C(=C/C#Cc2ccccc2)COc2ccc(Cl)cc21
2. Clc1ccc(C/C=C/C2=Cc3ccccc3OC2)cc1
3. C(/C=C/c1ccccc1)=C1/COc2ccccc2C1
4. Clc1ccc2c(c1)C/C(=C/C=C/c1ccccc1)CO2
5. O=C1/C(=C/C=C/c2ccccc2)COc2ccc(Cl)cc21

Result:
1. 75
2. 100
3. 100
4. 50
5. 50

Quick batch: CC50 at 72 h for everything below.
1. Clc1ccc(/C=C/C=C2\COc3ccc(Cl)cc3C2)cc1
2. Clc1ccc(/C=C/C=C2\COc3ccccc3C2)cc1

Result:
1. 25
2. 50

Quick batch: CC50 at 72 h for everything below.
1. O=C1/C(=C/C=C/c2ccccc2)COc2ccc(F)cc21
2. Fc1ccc2c(c1)C/C(=C/C=C/c1ccccc1)CO2

Result:
[50, 75]

Quick batch: CC50 at 72 h for everything below.
1. O=C1/C(=C/C=C/c2ccc(Cl)cc2)COc2ccccc21
2. C1=C(/C=C/Cc2ccccc2)COc2ccccc21
3. O=C1/C(=C/C=C/c2ccccc2)COc2ccccc21
4. O=C1/C(=C/C=C/c2ccc(Cl)cc2)COc2ccc(Cl)cc21

Result:
1. 50
2. 75
3. 25
4. 25

Q: Quick check: CC50 at 72 h of `O=C1/C(=C/C#Cc2ccccc2)COc2ccccc21` ?
Result: 50
